# logP[a] values compiled below
assay: log P by HPLC on reversed-phase C18 columns (OECD Guideline 117); method [a] acidic pH 2.7, method [b] neutral pH 7.8; format: physicochemical; settings: HPLC reversed-phase C18, method [a] acidic pH 2.7

Compound: CCSc1ccccc1-n1cnc2nc(-c3cccnc3)sc2c1=O
logP[a]: 2.20

Compound: O=c1c2sc(-c3cccnc3)nc2ncn1-c1cccc(C(F)(F)F)c1
logP[a]: 2.26

Compound: O=c1c2sc(-c3cccnc3)nc2ncn1-c1cc([S+]([O-])CC2CC2)ccc1F (stereo not drawn)
logP[a]: 1.63

Compound: O=c1c2sc(-c3cccnc3)nc2ncn1-c1cc(SCC(F)(F)F)c(Cl)cc1Cl
logP[a]: 3.25

Compound: O=c1c2sc(-c3cccnc3)nc2ncn1CC(F)F
logP[a]: 1.19

Compound: CSc1cc(-n2cnc3nc(-c4cncc(F)c4)sc3c2=O)ccc1C
logP[a]: 2.82

Compound: CN(C)C(=O)c1cc2cc(-n3cnc4nc(-c5cccnc5)sc4c3=O)ccc2s1
logP[a]: 1.70

Compound: Cc1cc(SC(F)(F)F)ccc1-n1cnc2nc(-c3cccnc3)sc2c1=O
logP[a]: 2.91

Compound: O=c1c2sc(-c3cccnc3)nc2ncn1-c1ccc(F)c([S+]([O-])C(F)(F)F)c1 (stereo not drawn)
logP[a]: 2.01

###

# logP[a] values compiled below
experiment: log P by HPLC on reversed-phase C18 columns (OECD Guideline 117); method [a] acidic pH 2.7, method [b] neutral pH 7.8; format: physicochemical; details: HPLC reversed-phase C18, method [a] acidic pH 2.7

Molecule: CN(C)C(=O)CSc1cccc(-n2cnc3nc(-c4cccnc4)sc3c2=O)c1
logP[a]: 1.57
--
Molecule: Cc1ccc(-n2cnc3nc(-c4cccnc4)sc3c2=O)cc1[S+]([O-])CC(F)(F)F (stereo not shown)
logP[a]: 1.86
--
Molecule: Cc1cc(C)c([S+]([O-])CC(F)(F)F)cc1-n1cnc2nc(-c3cncc(F)c3)sc2c1=O (stereo not shown)
logP[a]: 2.35
--
Molecule: O=c1c2sc(-c3cccnc3)nc2ncn1-c1ccc(Cl)cc1
logP[a]: 2.05
--
Molecule: CC[S+]([O-])c1ccc(-n2cnc3nc(-c4cccnc4)sc3c2=O)cc1 (stereo not shown)
logP[a]: 1.10
--
Molecule: CSc1cccc(-n2cnc3nc(-c4cccnc4)sc3c2=O)c1
logP[a]: 2.09
--
Molecule: CCSc1ccc(-n2cnc3nc(-c4cccnc4)sc3c2=O)cc1
logP[a]: 2.41
--
Molecule: Cn1ccc(Cn2cnc3nc(-c4cccnc4)sc3c2=O)n1
logP[a]: 0.97
--
Molecule: Cc1cccc(-n2cnc3nc(-c4cccnc4)sc3c2=O)c1
logP[a]: 1.94
--
Molecule: Cc1cc(F)c(-n2cnc3nc(-c4cncnc4)sc3c2=O)cc1SCC(F)(F)F
logP[a]: 2.73
--
Molecule: O=c1c2sc(-c3cccnc3)nc2ncn1Cc1ccncc1
logP[a]: 0.55
--
Molecule: CSc1cc(-n2cnc3nc(-c4cccnc4)sc3c2=O)ccc1C
logP[a]: 2.42
--
Molecule: O=c1c2sc(-c3cccnc3)nc2ncn1CC(F)(F)C(F)F
logP[a]: 1.57
--
Molecule: COc1cccc(Cn2cnc3nc(-c4cccnc4)sc3c2=O)c1
logP[a]: 1.91
--
Molecule: COc1ccc(-n2cnc3nc(-c4cccnc4)sc3c2=O)cc1
logP[a]: 1.73
--
Molecule: O=c1c2sc(-c3cccnc3)nc2ncn1-c1ccc(F)c(SC(F)(F)F)c1
logP[a]: 2.70
--
Molecule: O=c1c2sc(-c3cccnc3)nc2ncn1-c1ccccc1F
logP[a]: 1.70
--
Molecule: CN(C)C(=O)Cn1cnc2nc(-c3cccnc3)sc2c1=O
logP[a]: 0.65
--
Molecule: CC[S+]([O-])c1cccc(-n2cnc3nc(-c4cccnc4)sc3c2=O)c1 (stereo not shown)
logP[a]: 1.24

###

test: log P by HPLC on reversed-phase C18 columns (OECD Guideline 117); method [a] acidic pH 2.7, method [b] neutral pH 7.8; assay type: physicochemical; details: HPLC reversed-phase C18, method [a] acidic pH 2.7
# logP[a] values compiled below

Compound: CC(C)Sc1cccc(-n2cnc3nc(-c4cccnc4)sc3c2=O)c1
logP[a]: 2.76

Compound: Cc1ccc(-n2cnc3nc(-c4cncnc4)sc3c2=O)cc1
logP[a]: 1.80

Compound: Cc1cc(C)c(-n2cnc3nc(-c4cncc(F)c4)sc3c2=O)cc1SCC(F)(F)F
logP[a]: 3.64

Compound: O=c1c2sc(-c3cccnc3)nc2ncn1-c1cccc(OCC(F)(F)F)c1
logP[a]: 2.33

Compound: CC(C)C[S+]([O-])c1cccc(-n2cnc3nc(-c4cccnc4)sc3c2=O)c1 (stereo not shown)
logP[a]: 1.73

Compound: C[S+]([O-])c1cccc(-n2cnc3nc(-c4cccnc4)sc3c2=O)c1 (stereo not shown)
logP[a]: 1.04

Compound: CC[S+]([O-])c1ccccc1-n1cnc2nc(-c3cccnc3)sc2c1=O (stereo not shown)
logP[a]: 1.28

###

# logP[b] values compiled below
assay: log P by HPLC on reversed-phase C18 columns (OECD Guideline 117); method [a] acidic pH 2.7, method [b] neutral pH 7.8; type: physicochemical; details: HPLC reversed-phase C18, method [b] neutral pH 7.8

Compound: CSc1cc(-n2cnc3nc(-c4cncc(F)c4)sc3c2=O)ccc1C
logP[b]: 2.75
//
Compound: Cc1cc(C)c([S+]([O-])CC(F)(F)F)cc1-n1cnc2nc(-c3cncc(F)c3)sc2c1=O (centres unmarked)
logP[b]: 2.29
//
Compound: COc1ccc(-n2cnc3nc(-c4cccnc4)sc3c2=O)cc1
logP[b]: 1.76
//
Compound: CC(C)[S+]([O-])c1cccc(-n2cnc3nc(-c4cccnc4)sc3c2=O)c1 (centres unmarked)
logP[b]: 1.43
//
Compound: O=c1c2sc(-c3cccnc3)nc2ncn1Cc1cccnc1
logP[b]: 0.72
//
Compound: Cc1cccc(-n2cnc3nc(-c4cccnc4)sc3c2=O)c1
logP[b]: 1.94
//
Compound: Cc1ccc(-n2cnc3nc(-c4cccnc4)sc3c2=O)cc1
logP[b]: 1.96
//
Compound: Cc1ccc(-n2cnc3nc(-c4cccnc4)sc3c2=O)cc1[S+](C)[O-] (centres unmarked)
logP[b]: 1.26
//
Compound: O=c1c2sc(-c3cccnc3)nc2ncn1-c1ccc(F)c(SC(F)(F)F)c1
logP[b]: 2.66
//
Compound: Cn1ccc(Cn2cnc3nc(-c4cccnc4)sc3c2=O)n1
logP[b]: 1.08
//
Compound: Cc1cc(C)c(-n2cnc3nc(-c4cncc(F)c4)sc3c2=O)cc1SCC(F)(F)F
logP[b]: 3.34
//
Compound: Cc1ccc(-n2cnc3nc(-c4cncnc4)sc3c2=O)cc1
logP[b]: 1.72
//
Compound: COc1cccc(Cn2cnc3nc(-c4cccnc4)sc3c2=O)c1
logP[b]: 1.92
//
Compound: CC[S+]([O-])c1cccc(-n2cnc3nc(-c4cccnc4)sc3c2=O)c1 (centres unmarked)
logP[b]: 1.26
//
Compound: CC(c1ncnn1C)n1cnc2nc(-c3cccnc3)sc2c1=O (centres unmarked)
logP[b]: 1.07
//
Compound: CCSc1ccc(-n2cnc3nc(-c4cccnc4)sc3c2=O)cc1
logP[b]: 2.45
//
Compound: O=c1c2sc(-c3cccnc3)nc2ncn1-c1cc(SCC(F)(F)F)ccc1F
logP[b]: 2.56
//
Compound: O=c1c2sc(-c3cccnc3)nc2ncn1-c1cc(SCC2CC2)ccc1F
logP[b]: 3.00
//
Compound: CN(C)C(=O)c1cc2cc(-n3cnc4nc(-c5cccnc5)sc4c3=O)ccc2s1
logP[b]: 1.70
//
Compound: CN(C)C(=O)CSc1cccc(-n2cnc3nc(-c4cccnc4)sc3c2=O)c1
logP[b]: 1.55

###

assay: log P by HPLC on reversed-phase C18 columns (OECD Guideline 117); method [a] acidic pH 2.7, method [b] neutral pH 7.8; assay type: physicochemical; conditions: HPLC reversed-phase C18, method [b] neutral pH 7.8
# logP[b] values compiled below

Compound: Cc1ccc(-n2cnc3nc(-c4cccnc4)sc3c2=O)cc1SCC(F)(F)F [Compound 47]
logP[b]: 2.75

Compound: O=c1c2sc(-c3cccnc3)nc2ncn1-c1ccccc1F [Compound 40]
logP[b]: 1.69

Compound: CSc1cccc(-n2cnc3nc(-c4cccnc4)sc3c2=O)c1 [Compound 13]
logP[b]: 2.08

Compound: Cc1cc(F)c(-n2cnc3nc(-c4cncnc4)sc3c2=O)cc1SCC(F)(F)F [Compound 78]
logP[b]: 2.65

Compound: CCSc1cccc(-n2cnc3nc(-c4cccnc4)sc3c2=O)c1 [Compound 19]
logP[b]: 2.43

###

experiment: log P by HPLC on reversed-phase C18 columns (OECD Guideline 117); method [a] acidic pH 2.7, method [b] neutral pH 7.8; format: physicochemical; conditions: HPLC reversed-phase C18, method [b] neutral pH 7.8

Molecule: O=c1c2sc(-c3cccnc3)nc2ncn1-c1ccc(F)c([S+]([O-])C(F)(F)F)c1 (stereo not shown)
logP[b]: 1.95

Molecule: CC[S+]([O-])c1ccccc1-n1cnc2nc(-c3cccnc3)sc2c1=O (stereo not shown)
logP[b]: 1.29

Molecule: CC(C)Sc1cccc(-n2cnc3nc(-c4cccnc4)sc3c2=O)c1
logP[b]: 2.70

Molecule: Cc1ccc(-n2cnc3nc(-c4cccnc4)sc3c2=O)cc1[S+]([O-])CC(F)(F)F (stereo not shown)
logP[b]: 1.85
